Collected Ki values appear next to each entry.
target: Neuromedin-K receptor (Homo sapiens, UniProt P29371); test: Displacement of [3H]-SR142801 from human NK3 receptor expressed in recombinant CHO cells
Sequence (P29371 whole entry): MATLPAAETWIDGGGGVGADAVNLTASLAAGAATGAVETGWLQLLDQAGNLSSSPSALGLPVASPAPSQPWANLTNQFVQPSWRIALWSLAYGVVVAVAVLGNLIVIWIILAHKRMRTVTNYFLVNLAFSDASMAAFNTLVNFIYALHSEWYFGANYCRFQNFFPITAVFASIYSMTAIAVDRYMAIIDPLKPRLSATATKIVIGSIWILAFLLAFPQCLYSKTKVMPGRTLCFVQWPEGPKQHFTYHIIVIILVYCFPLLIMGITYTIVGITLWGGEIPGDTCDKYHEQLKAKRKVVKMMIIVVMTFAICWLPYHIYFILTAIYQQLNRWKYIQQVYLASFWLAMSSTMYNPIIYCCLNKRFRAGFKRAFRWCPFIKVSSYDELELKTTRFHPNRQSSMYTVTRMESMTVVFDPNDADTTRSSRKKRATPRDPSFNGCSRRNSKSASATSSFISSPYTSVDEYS

[
  {
    "COMPOUND": "CN1C(=O)OC2(CCN(CC[C@@H](C(=O)N(C)[C@@H](Cc3ccccc3)C(=O)NCCN)c3ccc(Cl)c(Cl)c3)CC2)c2cc(F)ccc21 (mixture of isomers)",
    "TARGET": "Neuromedin-K receptor (Homo sapiens, UniProt P29371)",
    "ENDPOINT_UNIT": "nM",
    "Ki": 1580
  },
  {
    "COMPOUND": "CN1C(=O)OC2(CCN(CCC[C@H](C(=O)N(C)[C@@H](Cc3ccccc3)C(=O)NCCN)c3ccc(Cl)c(Cl)c3)CC2)c2cc(F)ccc21",
    "TARGET": "Neuromedin-K receptor (Homo sapiens, UniProt P29371)",
    "ENDPOINT_UNIT": "nM",
    "Ki": 6310
  },
  {
    "COMPOUND": "CN1C(=O)OC2(CCN(CCC[C@@](C)(C(=O)N[C@H](Cc3ccccc3)C(=O)NCCO)c3ccc(Cl)c(Cl)c3)CC2)c2cc(F)ccc21",
    "TARGET": "Neuromedin-K receptor (Homo sapiens, UniProt P29371)",
    "ENDPOINT_UNIT": "nM",
    "Ki": 126
  }
]
